All values here come from ChEMBL document CHEMBL1770141.

System: Nucleic Acid
assay.text: Thermal stability of c-MYC FPu18T G-quadruplex DNA assessed as stabilization temperature at 2 uM by FRET assay in presence of 10 uM duplex DNA competitor
Type: nucleic-acid assay
reported.property: ΔTm (°C)

COc1ccc2cc3[n+](c4c2c1N(CCCCCCN)C=C4)CCc1cc2c(cc1-3)OCO2 = 27.5
COc1ccc2cc3[n+](c4c2c1N(CCCN(C)C)C=C4)CCc1cc2c(cc1-3)OCO2 = 24
COc1ccc2cc3[n+](c4c2c1N(CCCN1CCOCC1)C=C4)CCc1cc2c(cc1-3)OCO2 = 23
COc1ccc2cc3[n+](c4c2c1N(CCN(C)C)C=C4)CCc1cc2c(cc1-3)OCO2 = 19.5
